Experimental protocol: Cytotoxic Profiling in HEK 293 Cell Line of Diverse Libraries Using Quantitative High-Throughput Screening; note: nearly all actives have a fitted effect of over 60% in size
Test parameters: HEK 293 viability, ATP luminescence (CellTiter-Glo), 48-72 h; series mostly up to 115 µM
The campaign covered roughly 94,000 compounds. About 6,200 (6.6%) were called active. Another 31% or so got no clear call; they are omitted. Calls come from the whole dose curve; as a rule, active = well fitted inhibition curve with a large enough effect; inconclusive = small, poorly fitted or top-dose-only effect; inactive = flat fitted curve, though single readings scatter. The full list was thinned out, with actives kept by preference.
Write down one outcome, taken from 1 (active), -1 (inactive)

Illustrative cases are given below, each with its answer.
Molecule	Assigned category
Cn1ncc2c(C(=O)NCc3ccc(F)cc3F)cc(-c3ccccc3C(F)(F)F)nc21	1
Cc1cnc(CCNC(=O)c2cn(C)cn2)n1C1CC1	-1
CC(=O)N1CCN(C(=O)c2cc(-c3cccc(F)c3)nc3c2cnn3C)CC1	-1
C[C@H](C(=O)N1Cc2ccccc2CC2(CCN(Cc3ccncc3)CC2)C1)c1ccccc1	1
COc1ccccc1-c1cc(C(=O)NC2CCCCC2)c2cnn(C)c2n1	-1

Dear all, I need the recorded test outcome for Cn1cccc1C(=O)N1CC[C@@H]2NC(=O)[C@H]3C[C@H](NC(=O)C4CC4)CN3C(=O)[C@H]21 , thank you. -1

Try Cn1ncc2c(C(=O)N3CCN(c4ncccn4)CC3)cc(-c3ccc(C(F)(F)F)cc3)nc21 next. 1

What do we get for Cn1ncc2c(C(=O)NCc3ccc(F)cc3)cc(-c3cccc(C(F)(F)F)c3)nc21 ? -1

Quick one: NCC(=O)N1Cc2ccccc2CC2(CCCCN2CC2CCOCC2)C1 (stereo unspecified) -1

Again, but for CS(=O)(=O)N1CCCN(C(=O)Cc2cccc(F)c2)CCNC(=O)CC1c1ccccc1 (stereo unspecified) -1

Same lookup for Cc1ccc(-c2cc(C(=O)N3CCOCC3)c3cnn(C)c3n2)c(C)c1 , please. -1

Now try O=C(c1ccccc1)N1CCC2(CC(c3cccnc3)=NO2)C1 (stereo unspecified) . -1

Next molecule: N#Cc1ccc(CN2CC3CCC(C2)N3c2ccc(C(F)(F)F)cc2)cc1 -1

Repeat for the following molecule: CC[C@H]1CN(C(=O)c2cccnc2)CC[C@H]1CC(=O)NCc1cccnc1 -1

Then what about the molecule Cn1ncc2c(C(=O)NCc3ccc(C(F)(F)F)cc3)cc(C3C=C(C(F)(F)F)C=CC3)nc21 (stereo unspecified) ? -1
